B1: CPEB3 Ribozyme (parent)
chain: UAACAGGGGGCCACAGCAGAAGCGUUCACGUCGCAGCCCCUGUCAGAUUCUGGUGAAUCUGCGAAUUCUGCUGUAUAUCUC

Variants of: B1
Protocol Description: self-cleavage, relative activity (ratio to wild type); higher = more cleavage; in vitro, sequencing
Would you mind classing the entries by self-cleavage? Ranges: low (below 0.2), moderate (0.2 to below 0.5), high (0.5 or more)

• UAACAGGGGGCCACAGCAGAAGCGUUCACGUCGGAGCCCCUGUCAGAUUCUGGUGAAUCUGCGAAUUCUGCAGUAUAUCUC [C34G U72A] = low
• AAACAGGGGGCCACAGCAGAAGCGUCCACGUCGCAGCCCCUGUCAGAUUCUGGUGAAUCUGCGAAUUCUGCUGUAUAUCUC [U1A U26C] = moderate
• UAACAGGGGGCCGCAGCAGAAGCGUACACGUCGCAGCCCCUGUCAGAUUCUGGUGAAUCUGCGAAUUCUGCUGUAUAUCUC [A13G U26A] = high
• UAACAGGGGGCAACAGCAGAAGCGUUCACGUCGCAGCCCCUGUCAGAUUCUGGUGAAUCUGGGAAUUCUGCUGUAUAUCUC [C12A C62G] = moderate
• UAACAGGGGGCCACAGCAGAAGCGUUCACGUCGCAGCCCCGGUCAGACUCUGGUGAAUCUGCGAAUUCUGCUGUAUAUCUC [U41G U48C] = moderate

Problem: Quick check: band for UAACAGGGGGCCACAGCUGAAGCGUUCACGUCGCAGCCCCUGUCAGAUCCUGGUGAAUCUGCGAAUUCUGCUGUAUAUCUC [A18U U49C]
Solution: moderate

Problem: Bin this entry: UAACAGGGGGCCACAGCAGAAGCGUUCACGUCGAAGCCCCUGUCAGGUUCUGGUGAAUCUGCGAAUUCUGCUGUAUAUCUC [C34A A47G]
Solution: moderate

Problem: Record UAACAGGGGGCCACAGCAGAAGCGUUCACGUCCCAGCCCCUGUCAGAUUCCGGUGAAUCUGCGAAUUCUGCUGUAUAUCUC [G33C U51C] — which class?
Solution: moderate

Problem: Hi, small favor: classify UAACAGGGGGCCACAGCAGAAGCGUUCACGUAGCAGCCCCUGUCAGAUUCUUGUGAAUCUGCGAAUUCUGCUGUAUAUCUC [C32A G52U] by its self-cleavage when you get a moment.
Solution: low

Problem: # bin label for UAACAGGCGGCCACAGCAGAAGCGUUCACGUCGCACCCCCUGUCAGAUUCUGGUGAAUCUGCGAAUUCUGCUGUAUAUCUC [G8C G36C]
Solution: low

Problem: Category of UAACAGGGGGCCACAGUAGAAGCGAUCACGUCGCAGCCCCUGUCAGAUUCUGGUGAAUCUGCGAAUUCUGCUGUAUAUCUC [C17U U25A] :
Solution: moderate

Problem: Band of UAACAGGGGGCCACAGCAGAAGCGUUCACGUCGCAGCCCCUGGCUGAUUCUGGUGAAUCUGCGAAUUCUGCUGUAUAUCUC [U43G A45U] ?
Solution: low

Problem: Band for the recorded self-cleavage of UAACAGGGGGCCACAGCAGAAGCGUUCACGUCGCAGCCCCUGUCAGAUUCUGGCGAAUCUGCGAAUUCUGUUGUAUAUCUC [U54C C71U] ?
Solution: high

Problem: Kindly state the category for this variant: UAACAGGGGGCCACAGCUGAAGCGUUCACGUCGCAGCCCCUGUCAGAUUCUGGUGAAUCUGCGAAUUCUGCUGUAUACCUC [A18U U78C]
Solution: moderate

Problem: Band of UAACAGGGGGCCACAGCAGAAGCGUUCACGUCGCAGCCCCUGACAGAUUCUUGUGAAUCUGCGAAUUCUGCUGUAUAUCUC [U43A G52U] ?
Solution: high

Problem: Which category fits this record: UAACAGGGGGCCACAGCAGAAGCGUUCUCGUCGCAGCCCCUGUCAGAUUCUGGUGAAUCUGCGAAUUCUGCGGUAUAUCUC [A28U U72G]
Solution: high
